// provenance: patent US20250011413A1

Biological target: T1, PF4/heparin complex (human PF4 complexed with heparin) (human, UniProt P02776 32-101)
T1 sequence: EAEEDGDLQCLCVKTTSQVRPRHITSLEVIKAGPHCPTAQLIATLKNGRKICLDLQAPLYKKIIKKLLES
Assay: cell-based or functional assay
outcome_measure: % inhibition of 14C-serotonin release (SRA), HIT-Positive Patient #4 serum, scFv 50 µg/mL
Reply with the number, then its unit.

Recorded % inhibition of 14C-serotonin release (SRA), HIT-Positive Patient #4 serum, scFv 50 µg/mL, per entry:
binder: Mutant E scFv, scFv(Y156H, D180G, Q233P) (scFv, VL-linker-VH; histidine-tagged, from E. coli BL21; also called Mut E; not shown: histidine tag from the pADL-22c vector) scFv: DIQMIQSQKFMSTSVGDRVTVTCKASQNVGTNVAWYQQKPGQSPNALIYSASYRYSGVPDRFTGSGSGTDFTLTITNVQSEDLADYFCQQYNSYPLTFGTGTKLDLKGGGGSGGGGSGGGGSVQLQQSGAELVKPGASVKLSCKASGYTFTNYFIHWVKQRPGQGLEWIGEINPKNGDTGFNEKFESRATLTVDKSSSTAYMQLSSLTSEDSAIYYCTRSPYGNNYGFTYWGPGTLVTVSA
meas_value: 6.7%

binder: Mutant F scFv, scFv(E183V, E186K, G223R) (scFv, VL-linker-VH; histidine-tagged, from E. coli BL21; also called Mut F; not shown: histidine tag from the pADL-22c vector) scFv: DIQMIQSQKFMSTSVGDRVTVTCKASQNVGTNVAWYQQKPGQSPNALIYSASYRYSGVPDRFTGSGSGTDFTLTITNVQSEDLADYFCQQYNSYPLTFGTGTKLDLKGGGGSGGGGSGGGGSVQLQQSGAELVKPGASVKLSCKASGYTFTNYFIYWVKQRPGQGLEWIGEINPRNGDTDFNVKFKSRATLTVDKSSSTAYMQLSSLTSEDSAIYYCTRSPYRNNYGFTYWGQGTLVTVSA
meas_value: 50%

binder: Mutant C scFv, scFv(S50N, Y53H) (scFv, VL-linker-VH; histidine-tagged, from E. coli BL21; also called Mut C; not shown: histidine tag from the pADL-22c vector) scFv: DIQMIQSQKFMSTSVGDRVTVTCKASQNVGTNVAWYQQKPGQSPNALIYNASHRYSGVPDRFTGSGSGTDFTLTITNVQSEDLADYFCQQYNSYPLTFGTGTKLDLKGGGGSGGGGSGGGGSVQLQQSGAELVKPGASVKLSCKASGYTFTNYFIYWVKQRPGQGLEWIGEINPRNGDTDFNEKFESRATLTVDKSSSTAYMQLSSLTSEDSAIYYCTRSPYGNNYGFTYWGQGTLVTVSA
meas_value: 3.3%

binder: Wildtype scFv (KKO-derived single chain variable fragment) (scFv, VL-(G4S)3 linker-VH; expressed in E. coli BL21 from pADL-22c, purified on Ni-NTA as histidine-tagged scFv, about 28 kDa; also called WT; KKO-scFv; not shown: histidine tag from the pADL-22c vector) scFv: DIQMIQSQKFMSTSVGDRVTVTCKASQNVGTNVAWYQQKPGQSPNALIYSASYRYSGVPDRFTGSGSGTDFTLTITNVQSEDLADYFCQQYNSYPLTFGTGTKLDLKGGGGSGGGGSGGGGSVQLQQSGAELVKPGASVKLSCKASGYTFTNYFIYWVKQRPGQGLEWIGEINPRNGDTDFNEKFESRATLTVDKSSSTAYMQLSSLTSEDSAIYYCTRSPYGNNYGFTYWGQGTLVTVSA
meas_value: 6.7%

binder: Mutant B scFv, scFv(R18K, N152K, D180N) (scFv, VL-linker-VH; histidine-tagged, from E. coli BL21; also called Mut B; not shown: histidine tag from the pADL-22c vector) scFv: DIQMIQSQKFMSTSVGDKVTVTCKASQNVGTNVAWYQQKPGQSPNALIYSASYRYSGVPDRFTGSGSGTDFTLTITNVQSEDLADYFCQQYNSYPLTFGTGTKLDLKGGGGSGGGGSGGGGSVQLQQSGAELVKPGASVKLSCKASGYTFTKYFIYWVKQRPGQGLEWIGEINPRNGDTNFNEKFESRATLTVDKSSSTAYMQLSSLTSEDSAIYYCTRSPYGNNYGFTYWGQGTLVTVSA
meas_value: 7.8%

We now examine a further binder.
Sample Mutant D scFv, scFv(Y156H) (scFv, VL-linker-VH; histidine-tagged, from E. coli BL21; also called Mut D; not shown: histidine tag from the pADL-22c vector) scFv: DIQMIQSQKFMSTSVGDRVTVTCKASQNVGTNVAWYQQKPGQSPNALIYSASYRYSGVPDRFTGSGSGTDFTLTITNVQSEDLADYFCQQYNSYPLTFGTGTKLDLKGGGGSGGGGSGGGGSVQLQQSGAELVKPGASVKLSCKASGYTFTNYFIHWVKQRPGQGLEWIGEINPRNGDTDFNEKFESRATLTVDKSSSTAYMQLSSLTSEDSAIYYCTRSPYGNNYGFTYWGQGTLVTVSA ; % inhibition of 14C-serotonin release (SRA), HIT-Positive Patient #4 serum, scFv 50 µg/mL observed: 20%
